Target: Albumin (Homo sapiens, UniProt P02768)
Sequence (P02768 whole entry): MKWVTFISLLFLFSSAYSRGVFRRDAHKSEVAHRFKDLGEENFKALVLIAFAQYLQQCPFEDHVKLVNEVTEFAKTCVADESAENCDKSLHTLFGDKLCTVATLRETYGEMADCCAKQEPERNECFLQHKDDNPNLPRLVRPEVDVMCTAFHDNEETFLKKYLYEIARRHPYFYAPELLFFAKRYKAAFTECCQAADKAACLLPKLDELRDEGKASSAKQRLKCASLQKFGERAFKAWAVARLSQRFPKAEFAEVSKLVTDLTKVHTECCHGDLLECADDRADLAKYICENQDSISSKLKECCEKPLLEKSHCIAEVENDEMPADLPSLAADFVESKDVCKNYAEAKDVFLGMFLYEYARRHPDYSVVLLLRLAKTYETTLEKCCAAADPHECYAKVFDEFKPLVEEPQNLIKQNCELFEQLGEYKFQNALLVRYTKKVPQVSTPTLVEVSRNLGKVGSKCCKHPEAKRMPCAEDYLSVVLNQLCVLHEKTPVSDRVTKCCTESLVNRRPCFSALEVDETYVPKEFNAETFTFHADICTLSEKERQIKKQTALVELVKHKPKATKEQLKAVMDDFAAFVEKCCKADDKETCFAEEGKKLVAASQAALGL
Experiment: Protein binding in immobilized human serum albumin by HPLC analysis
Assay type: ADME
Details: read-out: PB (converted)
Property: fraction unbound; scope: individual compounds

Task: What does the data say about its fraction unbound? Entry: `COC1=C(C(=O)Nc2ncc(C)s2)N(C)S(=O)(=O)c2ccccc21`
Output: 0.158

Task: Same read-out for `CN(C)CCCN1c2ccccc2CCc2ccccc21` ?
Output: 0.151

Task: Same read-out for `COc1cc(Cc2cnc(N)nc2N)cc(OC)c1OC` ?
Output: 0.627

Task: Same read-out for `CCOC(=O)c1cc(-c2ccc(F)cc2F)ccc1O` ?
Output: 0.025

Task: Same read-out for `NC(N)=Nc1nc(CSCCC(N)=NS(N)(=O)=O)cs1` ?
Output: 0.749

Task: Same read-out for `NNC(=O)c1ccncc1` ?
Output: 0.891

New cases:
Task: What does the data say about its fraction unbound? Entry: `Cc1cnc(NC(=O)C2=C(O)c3ccccc3S(=O)(=O)N2C)s1`
Output: 0.001

Task: Same read-out for `CCN(CC)CCC[C@H](C)Nc1ccnc2cc(Cl)ccc12` ?
Output: 0.495

Task: Same read-out for CC(C)NCC(O)COc1cccc2ccccc12 (stereo not drawn) ?
Output: 0.375

Task: Same read-out for `O=C1CN=C(c2ccccc2)c2cc([N+](=O)[O-])ccc2N1` ?
Output: 0.233

Task: Same read-out for `CNC(=O)Oc1ccc2c(c1)[C@]1(C)CCN(C)[C@@H]1N2C` ?
Output: 0.8

Task: Same read-out for `CCCCc1c(OC)n(-c2ccccc2)n(-c2ccccc2)c1=O` ?
Output: 0.071

Task: Same read-out for `CCCCC1(C)C(=O)N(c2ccccc2)N(c2ccccc2)C1=O` ?
Output: 0.15

* * *

Assay: Protein binding in plasma (unknown origin)
Format: ADME, cell-free
Conditions: read-out: PPB (converted)
Property: fraction unbound; scope: individual compounds

Worked set:
Task: What does the data say about its fraction unbound? Entry: NC(N)=Nc1nc(CSCCC(N)=NS(N)(=O)=O)cs1 [FAMOTIDINE]
Output: 0.8

Task: Same read-out for NNC(=O)c1ccncc1 [ISONIAZID] ?
Output: 1

Task: Same read-out for COc1cc(Cc2cnc(N)nc2N)cc(OC)c1OC [TRIMETHOPRIM] ?
Output: 0.585 to 0.625

Task: Same read-out for CC1=C(CC(=O)O)c2cc(F)ccc2/C1=C\c1ccc([S+](C)[O-])cc1 (centres undefined) ?
Output: 0.06 to 0.065

Task: Same read-out for CN(C)CCCN1c2ccccc2CCc2ccccc21 [IMIPRAMINE] ?
Output: 0.074 to 0.099

Task: Same read-out for CN1C(C(=O)Nc2ccccn2)=C(O)c2ccccc2S1(=O)=O [PIROXICAM] ?
Output: 0.01

New cases:
Task: What does the data say about its fraction unbound? Entry: CCN(CC)CCOC(=O)c1ccc(N)cc1 [PROCAINE]
Output: 0.94

Task: Same read-out for Cc1ncc([N+](=O)[O-])n1CCO [METRONIDAZOLE] ?
Output: 0.89 to 0.9

Task: Same read-out for CO/N=C(\C(=O)N[C@@H]1C(=O)N2C(C(=O)O)=C(COC(N)=O)CS[C@H]12)c1ccco1 [CEFUROXIME] ?
Output: 0.67 to 0.685
